Tested on: Human pancreas cancer cells, KLM-1
measurement-description: Cancer cell inhibitory (growth suppressive) action against pancreatic cancer cells, CellTiter-Glo viable cell count
Format: cell-based
experimental-conditions: KLM1, KLM-1, 10 μg/mL, 24 hours, relative to 0.1% DMSO (100), read-out: Cancer cell growth rate (%)
experimental-endpoint: activity at 10 µg/mL (%)

- compound: "CCN1C(=O)/C(=c2\\s/c(=C/c3ccc4c(c3)c3ccccc3n4CC)c(=O)n2CC(=O)O)SC1=S [compound 1, reference compound]"
  experimental-endpoint: "activity at 10 µg/mL"
  unit-info: "%"
  reported-value: 99
- compound: "CC[N+]1=C(/C=c2\\s/c(=C/c3ccc4c(c3)C3CCCC3N4c3ccccc3)c(=O)n2CC(=O)O)C(C)(C)c2ccccc21 (stereo not drawn) [Compound 15]"
  experimental-endpoint: "activity at 10 µg/mL"
  unit-info: "%"
  reported-value: 9
- compound: "CCN1c2ccc(/C=C/C3=[N+](CC)c4ccc(OC)cc4C34CCCCC4)cc2C2CCCC21 (stereo not drawn) [Compound 8]"
  experimental-endpoint: "activity at 10 µg/mL"
  unit-info: "%"
  reported-value: 24.3
- compound: "CCn1c2ccccc2c2cc(/C=c3/s/c(=C\\C4=[N+](CC)c5ccccc5C4(C)C)n(CC(=O)O)c3=O)ccc21 [Compound 20]"
  experimental-endpoint: "activity at 10 µg/mL"
  unit-info: "%"
  reported-value: 22.3
- compound: "COc1ccc(N2c3ccc(/C=C4/SC(=S)N(CCC(=O)O)C4=O)cc3C3CCCC32)cc1 (stereo not drawn) [compound 3, reference compound]"
  experimental-endpoint: "activity at 10 µg/mL"
  unit-info: "%"
  reported-value: 95
- compound: "COc1ccc(N2c3ccc(/C=C/C4=[N+](C)c5ccccc5C4(C)C)cc3C3CCCC32)cc1 (stereo not drawn) [Compound 11]"
  experimental-endpoint: "activity at 10 µg/mL"
  unit-info: "%"
  reported-value: 2.6
- compound: "CCC[N+]1=C(/C=C/C=C/c2ccc(N(C)C)cc2)C(C)(C)c2ccccc21 [Compound 26]"
  experimental-endpoint: "activity at 10 µg/mL"
  unit-info: "%"
  reported-value: 8.9
- compound: "CCOC(=O)Cn1c(=O)/c(=C\\c2ccc3c(c2)C2CCCC2N3c2ccccc2)s/c1=C1/SC(=S)N(CC)C1=O (stereo not drawn) [compound 2, reference compound]"
  experimental-endpoint: "activity at 10 µg/mL"
  unit-info: "%"
  reported-value: 91
- compound: "CCn1c2ccccc2c2cc(/C=C3/SC(=S)N(CC(=O)O)C3=O)ccc21 [compound 4, reference compound]"
  experimental-endpoint: "activity at 10 µg/mL"
  unit-info: "%"
  reported-value: 100

* * *

Excitation wavelength λex reference
measurement-description: Measurement of fluorescent property of compound (spectrofluorometer)
Format: physicochemical
experimental-conditions: 5 μM DMSO solution
experimental-endpoint: Excitation wavelength λex (nm)

- compound: "CCN1c2ccc(/C=C/C3=[N+](C)c4ccc5ccccc5c4C3(C)C)cc2C2CCCC21 (stereo not shown)"
  reported-value: 591
- compound: "COc1ccc(N2c3ccc(/C=C/C4=[N+](C)c5ccccc5C4(C)C)cc3C3CCCC32)cc1 (stereo not shown) [Compound 38]"
  reported-value: 573
- compound: "COc1ccc(N2c3ccc(/C=C/C4=[N+](CCC(=O)O)c5ccccc5C4(C)C)cc3C3CCCC32)cc1 (stereo not shown)"
  reported-value: 592
- compound: "CCC[N+]1=C(/C=C/C=C/c2ccc(N(C)C)cc2)C(C)(C)c2ccccc21"
  reported-value: 609

* * *

measurement-description: Measurement of fluorescent property of compound (spectrofluorometer)
Type: physicochemical
experimental-conditions: 5 μM DMSO solution
Fluorescence wavelength λem reference
experimental-endpoint: Fluorescence wavelength λem (nm)

- compound: "COc1ccc(N2c3ccc(/C=C/c4sc5ccccc5[n+]4CC(=O)O)cc3C3CCCC32)cc1 (stereo not drawn) [Compound 33]"
  experimental-endpoint: "Fluorescence wavelength λem"
  unit-info: "nm"
  reported-value: 677
- compound: "CCn1c2ccccc2c2cc(/C=c3/s/c(=C\\C4=[N+](CC)c5ccccc5C4(C)C)n(CC(=O)O)c3=O)ccc21 [Compound 20]"
  experimental-endpoint: "Fluorescence wavelength λem"
  unit-info: "nm"
  reported-value: 585
- compound: "CCN1c2ccc(/C=C/C3=[N+](C)c4ccccc4C3(C)C)cc2C2CCCC21 (stereo not drawn) [Compound 34]"
  experimental-endpoint: "Fluorescence wavelength λem"
  unit-info: "nm"
  reported-value: 611
- compound: "CCC[N+]1=C(/C=C/C=C/c2ccc(N(C)C)cc2)C(C)(C)c2ccccc21 [Compound 26]"
  experimental-endpoint: "Fluorescence wavelength λem"
  unit-info: "nm"
  reported-value: 692
- compound: "COc1ccc(N2c3ccc(/C=C/C4=[N+](C)c5ccccc5C4(C)C)cc3C3CCCC32)cc1 (stereo not drawn) [Compound 38]"
  experimental-endpoint: "Fluorescence wavelength λem"
  unit-info: "nm"
  reported-value: 670
- compound: "CCn1c2ccccc2c2cc(/C=C/C3=[N+](C)c4ccccc4C3(C)C)ccc21 [Compound 36]"
  experimental-endpoint: "Fluorescence wavelength λem"
  unit-info: "nm"
  reported-value: 594
- compound: "COc1ccc(N2c3ccc(/C=C/C4=[N+](C)c5ccccc5C4(C)C)cc3C3CCCC32)cc1 (stereo not drawn) [Compound 11]"
  experimental-endpoint: "Fluorescence wavelength λem"
  unit-info: "nm"
  reported-value: 669
- compound: "COc1ccc(N2c3ccc(/C=C/C4=[N+](CCC(=O)O)c5ccccc5C4(C)C)cc3C3CCCC32)cc1 (stereo not drawn) [Compound 32]"
  experimental-endpoint: "Fluorescence wavelength λem"
  unit-info: "nm"
  reported-value: 671
- compound: "CCN1c2ccc(/C=C/C3=[N+](CC)c4ccc(OC)cc4C34CCCCC4)cc2C2CCCC21 (stereo not drawn) [Compound 8]"
  experimental-endpoint: "Fluorescence wavelength λem"
  unit-info: "nm"
  reported-value: 623

Values compiled from patent US10220024B2.
